assay: Cytotoxicity against […] human C8166-CCR5 cells assessed as decrease in cell viability by cell associated dehydrogenase activity assay; assay type: cell-based
Below, each entry is listed alongside its reported CC50.

| structure.string | CC50 |
| --- | --- |
| CO[C@@H]1CC[C@]2(C)[C@H](CC[C@@]3(C)CC4=CC[C@@H]5C(C)(C)[C@H](OC(=O)CCC(=O)OCc6cc(=O)c(OC(=O)CCC(=O)O[C@@H]7CC[C@@]8(C)[C@@H]9CC[C@H]%10[C@@](C)(CC[C@@H]%11C(C)(C)[C@H](OC)CC[C@]%11%10C)CC9=CC[C@@H]8C7(C)C)co6)CC[C@@]5(C)[C@@H]4CC[C@@H]32)C1(C)C | 4.2 µg/mL |
| CO[C@H]1CC[C@]2(C)[C@H](CC[C@@]3(C)CC4=CC[C@@H]5C(C)(C)[C@H](O)CC[C@@]5(C)[C@@H]4CC[C@@H]32)C1(C)C | > 100 µg/mL |
| CO[C@H]1CC[C@]2(C)[C@H](CC[C@@]3(C)CC4=CC[C@@H]5C(C)(C)[C@H](OC(=O)CCC(=O)Oc6coc(CO)cc6=O)CC[C@@]5(C)[C@@H]4CC[C@@H]32)C1(C)C | > 100 µg/mL |
| CO[C@H]1CC[C@]2(C)[C@H](CC[C@@]3(C)CC4=CC[C@@H]5C(C)(C)[C@H](OC(=O)CCC(=O)Oc6cc(-c7oc8cc(O)cc(O)c8c(=O)c7O)ccc6O)CC[C@@]5(C)[C@@H]4CC[C@@H]32)C1(C)C | > 100 µg/mL |
| CO[C@H]1CC[C@]2(C)[C@H](CC[C@@]3(C)CC4=CC[C@@H]5C(C)(C)[C@H](OC(=O)CCC(=O)Oc6c(O)cc7oc(-c8ccccc8)cc(=O)c7c6O)CC[C@@]5(C)[C@@H]4CC[C@@H]32)C1(C)C | > 100 µg/mL |

###

experiment: Cytotoxicity against […] human C8166-CCR5 cells assessed as decrease in cell viability by cell associated dehydrogenase activity assay; format: cell-based
readout.label: CC50

| structure.string | result |
| --- | --- |
| CC1=C[C@@H]([C@H](O)[C@H](C)[C@@H]2C[C@@H](O)[C@@]3(O)[C@@H]4CC[C@@H]5C(C)(C)O[C@@H]6CC(=O)O[C@@]56C[C@]4(O)CC[C@@]23C)OC1=O | > 200 µg/mL |
| CO[C@@H]1CC[C@]2(C)[C@H](CC[C@@]3(C)CC4=CC[C@@H]5C(C)(C)[C@H](OC(=O)CCC(=O)Oc6cc(-c7oc8cc(O)cc(O)c8c(=O)c7O)ccc6O)CC[C@@]5(C)[C@@H]4CC[C@@H]32)C1(C)C | > 100 µg/mL |
| CO[C@@H]1CC[C@]2(C)[C@H](CC[C@@]3(C)CC4=CC[C@@H]5C(C)(C)[C@H](OC(=O)CCC(=O)Oc6coc(CO)cc6=O)CC[C@@]5(C)[C@@H]4CC[C@@H]32)C1(C)C | 22.2 µg/mL |

###

target: Protease (Human immunodeficiency virus 1, UniProt Q9YQ12)
Sequence (Q9YQ12 whole entry): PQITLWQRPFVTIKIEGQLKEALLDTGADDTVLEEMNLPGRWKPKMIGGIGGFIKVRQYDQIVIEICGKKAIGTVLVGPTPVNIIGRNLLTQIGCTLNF
pIC50: −log10 of the molar value.
Below, each entry is listed alongside its reported pIC50.

| compound | pIC50 |
| --- | --- |
| C=C(C)[C@@H]1CC[C@]2(C(=O)O)CC[C@]3(C)[C@H](CC[C@@H]4[C@@]5(C)CC[C@H](O)C(C)(C)[C@@H]5CC[C@]43C)[C@@H]12 | 5.40 |
| C[C@H]1[C@H](C)CC[C@]2(C(=O)O)CC[C@]3(C)C(=CC[C@@H]4[C@@]5(C)CC[C@H](O)C(C)(C)[C@@H]5CC[C@]43C)[C@H]12 [URSOLIC ACID] | 5.10 |
| C[C@H]1[C@H](C)CC[C@]2(C(=O)O)CC[C@]3(C)C(=CC[C@@H]4[C@@]5(C)CC[C@H](O)C(C)(C)[C@@H]5CC[C@]43C)[C@H]12 [URSOLIC ACID HYDROGEN MALONATE] | 5.22 |
| CC1(C)CC[C@]2(C(=O)NCCCCCC(=O)O)CC[C@]3(C)C(=CC[C@@H]4[C@@]5(C)CC[C@H](O)C(C)(C)[C@@H]5CC[C@]43C)[C@@H]2C1 | 5.77 |
| CC1(C)CC[C@]2(C(=O)O)CC[C@]3(C)C(=CC[C@@H]4[C@@]5(C)CC[C@H](O)C(C)(C)[C@@H]5CC[C@]43C)[C@@H]2C1 | 5.10 |
| CC1(C)CC[C@]2(C(=O)NCCCCCC(=O)O)CC[C@]3(C)C(=CC[C@@H]4[C@@]5(C)CC[C@H](OC(=O)CCCCC(=O)O)C(C)(C)[C@@H]5CC[C@]43C)[C@@H]2C1 | 5.77 |

###

assay: Selectivity index, ratio of CD50 for human MT4 cells to ID50 for HIV1; format: toxicity, cell-based; conditions: read-out: Selectivity Index

| structure.string | selectivity ratio |
| --- | --- |
| CC1(C)[C@@H](O)CC[C@]2(C)[C@H]3C(=O)C=C4[C@@H]5C[C@@](C)(C(=O)O)CC[C@]5(C)CC[C@@]4(C)[C@]3(C)CC[C@@H]12 | 9.6 |

###

Below, each entry is listed alongside its reported selectivity ratio.
assay: Selectivity index, ratio of CC50 for human C8166-CCR5 cells to EC50 for HIV1 NL4-3; assay type: toxicity, cell-based; conditions: read-out: Ratio CC50/EC50
readout.label: selectivity ratio

| structure.string | readout.label | modifier.sign | quantitative.result |
| --- | --- | --- | --- |
| CO[C@H]1CC[C@]2(C)[C@H](CC[C@@]3(C)CC4=CC[C@@H]5C(C)(C)[C@H](OC(=O)CCC(=O)OCc6cc(=O)c(OC(=O)CCC(=O)O[C@@H]7CC[C@@]8(C)[C@@H]9CC[C@H]%10[C@@](C)(CC[C@@H]%11C(C)(C)[C@@H](OC)CC[C@]%11%10C)CC9=CC[C@@H]8C7(C)C)co6)CC[C@@]5(C)[C@@H]4CC[C@@H]32)C1(C)C | selectivity ratio | > | 5000 |
| CO[C@H]1CC[C@]2(C)[C@H](CC[C@@]3(C)CC4=CC[C@@H]5C(C)(C)[C@H](OC(=O)CCC(=O)Oc6cc(-c7oc8cc(O)cc(O)c8c(=O)c7O)ccc6O)CC[C@@]5(C)[C@@H]4CC[C@@H]32)C1(C)C | selectivity ratio | > | 5000 |
| CO[C@@H]1CC[C@]2(C)[C@H](CC[C@@]3(C)CC4=CC[C@@H]5C(C)(C)[C@H](OC(=O)CCC(=O)Oc6cc(-c7oc8cc(O)cc(O)c8c(=O)c7O)ccc6O)CC[C@@]5(C)[C@@H]4CC[C@@H]32)C1(C)C | selectivity ratio | = | 4.8 |
| CO[C@H]1CC[C@]2(C)[C@H](CC[C@@]3(C)CC4=CC[C@@H]5C(C)(C)[C@H](OC(=O)CCC(=O)Oc6coc(CO)cc6=O)CC[C@@]5(C)[C@@H]4CC[C@@H]32)C1(C)C | selectivity ratio | = | 86.8 |
